Recorded values, source patent US20230031406A1.

Test system: PMA-differentiated THP-1 cells
Measurement Notes: IL-1β production in PMA-differentiated THP-1 cells stimulated with gramicidin (hTHP-1 assay containing 2% fetal bovine serum; Procedures 1 and 2)
Type: cell-based, human
Applied Conditions: Homo sapiens, THP-1, Table B2; 2% fetal bovine serum; class symbols; read-out: hTHP-1 IC50
pIC50: −log10 of the molar value.
Entries and their pIC50 values follow.

{"columns": ["Compound", "pIC50"],
 "data": [
  ["COC(C)(C)c1ncc(S(N)(=O)=NC(=O)Nc2c3c(nc4c2CCC4)CCC3)s1 (stereo not shown)", "5.30 to 6.00"]
]}

Problem: pIC50 for CCc1nc2c(c(NC(=O)N=S(N)(=O)c3sc(C(C)(C)O)cc3F)c1C1CC1)CCC2 (stereo not shown) ?
Solution: 6.70 to 7.40

Problem: pIC50 for CCC1CCc2c1nc1c(c2NC(=O)N=S(N)(=O)c2ccn(C(F)F)n2)CCC1 (single isomer, unassigned) [Compound 668b] ?
Solution: 4.52 to 5.30

Problem: pIC50 for Cc1c(C2(C)CC2)nc2c(c1NC(=O)N=S(N)(=O)c1cc(C(C)(C)O)cs1)CCC2 (single isomer, unassigned) [Compound 669b] ?
Solution: 4.52 to 5.30
